subject.of.test: T1, mouse LTBP1-proTGFβ1 complex (mouse, UniProt Q8CG19 339-1712; P04202 30-390)
T1 construct: Exemplary entries; In the cell assays expressed from mouse LTBP1S and mouse proTGFb1 plasmids in LN229 cells; also called Mo LTBP1-proTGFβ1; MuLTBP1-ProTGFb1
assay.overview: Octet BLI, IgG captured
metric: Kd (nM)
Write the value in nM as a bare number.

Example results:
binder="SR-AB22 (antibody, IgG1, V domains shown, Cycle 2, lineage SR-AB14) VH: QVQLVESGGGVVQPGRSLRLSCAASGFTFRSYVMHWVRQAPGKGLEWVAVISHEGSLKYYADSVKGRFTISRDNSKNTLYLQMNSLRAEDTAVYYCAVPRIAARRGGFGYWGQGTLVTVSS VL: NFMLTQPHSVSESPGKTVTISCTRSSGNIDNNYVQWYQQRPGSSPTTVIYEDNQRPSGVPDRFSGSIDSSSNSASLTISGLKTEDEADYYCQSYDSDNQGVVFGGGTKLTVL" metric=Kd observed=2.43
binder="SR-AB10 (antibody, IgG1, V domains shown, Parent antibody) VH: QLQLQESGGGVVQPGRSLRLSCAASGFTFNNYPIHWVRQAPGKGLEWVAVMSYDGINKYYADSVKGRFTISRDNSKNTLYLQMNSLRAEDTAVYYCARPRIAARRGGFDYWGQGTLVTVSS VL: NFMLTQPHSVSESPGKTVTISCTRSSGNIDNNYVQWYQQRPGSSPTTVIYEDNQRPSGVPDRFSGSIDSSSNSASLTISGLKTEDEADYYCQSYDSDNQGVVFGGGTKLTVL" metric=Kd observed=14.2

Look up and state reported Kd for SR-AB23 (antibody, IgG1, V domains shown, Cycle 2, lineage SR-AB14) VH: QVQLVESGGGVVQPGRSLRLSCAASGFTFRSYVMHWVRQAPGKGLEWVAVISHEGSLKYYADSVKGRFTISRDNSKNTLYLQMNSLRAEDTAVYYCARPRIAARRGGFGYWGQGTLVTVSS VL: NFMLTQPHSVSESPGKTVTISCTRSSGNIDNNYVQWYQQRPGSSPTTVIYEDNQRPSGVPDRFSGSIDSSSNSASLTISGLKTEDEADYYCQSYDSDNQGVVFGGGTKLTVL 8.38

For the binder SR-AB13 (antibody, IgG1, V domains shown, Parent antibody; also called SR-13) VH: QLQLQESGPGLVKPSETLSLTCTVSGGSISSSSYYWGWIRQPPGKGLEWIGSISYSGSTYYNPSLKSRVTISVDTSKNQFSLKLSSVTAADTAVYYCARDPSYDSIAGMDVWGQGTTVTVSS VL: DIQLTQSPSSLSASVGDRVTITCRASQSISSYLNWYQQKPGKAPKLLIYAASNLQSGVPSRFSGSGSGTDFTLTISSLQPEDFATYYCQQSFDFPFTFGGGTKVEIK , report Kd. 59.5
